Endpoint: IC50. System: Human 5-HT4 receptor (5-HT4b) (Homo sapiens, UniProt Q13639). Items follow.
Sequence (Q13639 whole entry): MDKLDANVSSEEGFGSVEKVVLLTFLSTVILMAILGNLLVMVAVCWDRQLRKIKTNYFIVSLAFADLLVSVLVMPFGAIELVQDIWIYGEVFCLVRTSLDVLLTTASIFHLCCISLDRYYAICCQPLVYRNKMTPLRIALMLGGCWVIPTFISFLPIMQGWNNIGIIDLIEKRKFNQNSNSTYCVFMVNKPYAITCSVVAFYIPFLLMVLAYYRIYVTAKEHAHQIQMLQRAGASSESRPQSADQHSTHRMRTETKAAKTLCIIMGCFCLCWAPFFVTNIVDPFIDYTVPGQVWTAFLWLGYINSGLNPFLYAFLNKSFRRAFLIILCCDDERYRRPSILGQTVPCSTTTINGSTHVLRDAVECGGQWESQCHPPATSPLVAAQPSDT

Would you mind giving IC50 for every molecule in the list below?
1. CC(=O)N1CC[C@H](NC2CC(c3nc(-n4nc(C(C)C)c5cccc(F)c54)no3)C2)C1 (stereo partly shown)
2. CC(=O)N1CCC(N2CCC(c3nc(-n4nc(C(C)C)c5cccc(F)c54)no3)CC2C)CC1 (stereo not shown)
3. CC(C)c1nn(-c2noc(C3CCN([C@H]4[C@@H]5CCC[C@H]4CN(C(=O)CO)C5)CC3)n2)c2c(F)cccc12
4. CC(=O)N1CCC[C@H]1CN1CC[C@@H](Cc2nc(-n3nc(C(C)C)c4cccc(F)c43)no2)C1

Result:
1: < 20 nM; 2: 442 nM; 3: < 20 nM; 4: 27.4 nM

----------
Assign pIC50 to each entry below.
Biological target: 5-HT4 receptor (Cavia porcellus)
Construct: striatum was isolated which was cryopreserved at −80° C. until use; from tissue; host or cells: guinea pig (Slc-Hartley) striatum membranes
Sequence (O70528 whole entry): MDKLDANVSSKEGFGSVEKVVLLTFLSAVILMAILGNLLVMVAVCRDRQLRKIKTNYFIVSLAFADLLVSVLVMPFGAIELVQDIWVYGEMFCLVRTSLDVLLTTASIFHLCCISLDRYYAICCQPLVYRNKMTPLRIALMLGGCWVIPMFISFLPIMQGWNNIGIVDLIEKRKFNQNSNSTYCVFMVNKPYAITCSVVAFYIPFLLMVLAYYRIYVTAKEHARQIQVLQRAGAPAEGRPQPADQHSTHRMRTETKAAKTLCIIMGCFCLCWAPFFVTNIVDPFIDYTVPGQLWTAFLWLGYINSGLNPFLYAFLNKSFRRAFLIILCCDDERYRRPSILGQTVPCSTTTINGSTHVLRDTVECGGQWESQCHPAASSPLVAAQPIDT
Test: Test Example 1: Serotonin 4 (5-HT4) receptor binding assay, [3H]-GR113808, guinea pig striatum membranes (Table 96)
Settings: Guinea pig 5-HT4 receptor binding assay, [3H]-GR113808, striatum membranes; mean value of each group
Method: The 5-HT4 receptor binding assay and preparations of receptor membrane preparations herein were carried out according to a method of Grossman et al. [see, British J. Pharmacol., (1993) 109, 618]. Slc-Hartley guinea pigs (body weight 300 g to 400 g) were decapitated to remove brain rapidly, and striatum was isolated which was cryopreserved at −80° C. until use. […]
pIC50: −log10 of the molar value. Counter-ions that a name gives are not always drawn.

CCc1nn(-c2noc(C3CCN(CCCO)CC3)n2)c2ccccc12 ... > 7.70

Would you mind giving pIC50 for every compound in the list below?
1. CCc1nn(-c2noc(C3CCN(CCCOC)CC3)n2)c2ccccc12 [Example 87, trifluoroacetate]
2. CCC(C)N1CCC(c2nc(-n3nc(C4CC4)c4ccccc43)no2)CC1 (stereo not shown) [Example 102, trifluoroacetate]
3. CCC(C)N1CCC(c2nc(-n3nc(C4CCC4)c4ccccc43)no2)CC1 (stereo not shown) [Example 114, trifluoroacetate]
4. CCc1nn(-c2noc(C3CCN(CC4CC4)CC3)n2)c2ccccc12 [Example 112, trifluoroacetate]
5. CCc1nn(-c2noc(C3CCN(CCC4CCOCC4)CC3)n2)c2cc(F)ccc12

Result:
1: 7.68; 2: > 7.70; 3: 7.58; 4: 7.58; 5: > 7.70

Would you mind giving pIC50 for every compound in the list below?
1. CCc1nn(-c2noc(C3CCN(CC(C)C)CC3)n2)c2ccccc12
2. CCc1nn(-c2noc(C3CCN(C4CCN(C(=O)OC)CC4)CC3)n2)c2cc(F)ccc12

Result:
1. > 7.70
2. 7.60

Would you mind giving pIC50 for every compound in the list below?
1. COCCCN1CCC(c2nc(-n3nc(C(C)C)c4ccccc43)no2)CC1
2. CCN[C@H]1C[C@@H](c2nc(-n3nc(CC)c4ccc(F)cc43)no2)C1
3. CC(=O)N1CCC(N2CCC(c3nc(-n4nc(C(C)C)c5cccc(F)c54)no3)CC2)CC1.Cl [Example 232, hydrochloride]
4. COCCCN1CCC(c2nc(-n3nc(C4CC4)c4ccccc43)no2)CC1 [Example 88, trifluoroacetate]
5. CCc1nn(-c2noc(C3CN(C4CCN(C(=O)OC)CC4)C3)n2)c2ccccc12
6. CCc1nn(-c2noc(C3CCN(CCCOC)CC3)n2)c2c(F)cccc12
7. CCc1nn(-c2noc(C3CCN(C(C)CC)CC3)n2)c2ccccc12 (stereo not shown) [Example 101, trifluoroacetate]
8. CCc1nn(-c2noc(C3CCN(C[C@@H]4CCCN4C(=O)OCCF)CC3)n2)c2c(F)cccc12

Result:
7.51
> 7.70
> 7.70
7.47
> 7.70
> 7.70
> 7.70
> 7.70

src = patent US20140057895A1
